Record form. Attribute: %Inh. Fill in for each entry.
System: S6K1;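 note: KINOMEscan kinase panel screen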
test_settings: concentration: 1 μM, replicates: in singlicate; n = 1

Examples with answers:
compound	target_or_test_system	value_observed
Cc1ccc(C)c(NC(=O)Nc2ccc(C)c(-c3ccc(C(=O)Nc4ccncc4)cc3)c2)c1 [GSK1398473]	S6K1	3%
O=C(Nc1n[nH]c2cc(-c3cccs3)ccc12)C1CC1 [SB-731284]	S6K1	61%
COc1cccc(CC(=O)N2CCc3cc(-c4cn(C)c5ncnc(N)c45)ccc32)c1 [GSK2608899]	S6K1	13%
NCCC(NC(=O)c1cc(Br)c(-c2ccnc3[nH]ccc23)s1)c1ccccc1.O=C(O)C(F)(F)F.O=C(O)C(F)(F)F (centres unmarked) [GSK1307810]	S6K1	48%
Cl.O=C(Nc1ccc(Oc2ccc3[nH]c(NC(=O)c4ccco4)nc3c2)cc1)Nc1cc(C(F)(F)F)ccc1F [GW683134]	S6K1	45%
COC(=O)Nc1nc2ccc(Oc3ccc(CC(=O)Nc4cc(C(F)(F)F)ccc4F)cc3)cc2[nH]1 [GW680903]	S6K1	9%

Return reported %Inh values for all items listed beneath this line.
1. COc1ccc(NC(=O)c2ccoc2)cc1-c1ccc(C(=O)NCC2CC2)cc1 [GW810437]
2. CN(c1ccc(NC(=O)Nc2cccc(Cl)c2)cc1)c1ccnc(N)n1.Cl [GW830707]

9%
0%
